Assign normalized growth to each entry below.
Test: chemical genetic growth profiling, strain panel (AID 1159580);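 further: tested at 20 µM; growth read once vehicle control cultures reached saturation at 30 °C; 1 = growth at the plate median or of vehicle wells; lower values mean less growth of the strain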
Conditions: S. cerevisiae deletion strains, growth OD, locus YNL298W, strain CLA4 (second series), active compounds read low
Among all 5,500 compounds or so, about 2,000 (36%) were called active. About 18% were inconclusive and are not listed. This is one part of the list.
Give bare numbers.

Recorded normalized growth, per entry:
chemical.string: O=[N+]([O-])c1ccc2nsnc2c1
normalized growth: 0.361
--
chemical.string: COC(=O)c1cc([N+](=O)[O-])ccc1NC(C)=O
normalized growth: 0.958
--
chemical.string: O=[N+]([O-])c1ccc(SC2=NCCN2)c(Cl)c1
normalized growth: 1.03
--
chemical.string: CCn1nc(C)c(Br)c1-c1nc(-c2ccc(C(F)(F)F)cc2)no1
normalized growth: 1.04
--
chemical.string: Nc1ccccc1SCC(=O)Nc1c(F)cccc1F
normalized growth: 1.03

Turning now to a further record.
Could you share which normalized growth value was measured for CC(=O)Nc1cc([N+](=O)[O-])ccc1-n1cc(C)c(C(F)(F)F)n1 ? 0.962

----------
Experiment: chemical genetic growth profiling, strain panel (AID 1159580)
Details: S. cerevisiae deletion strains, growth OD, locus YBR009C, strain hhf1
Screen size: about 5,500 compounds; about 2,000 (36%) were called active. Another 18% or so got no clear call; they are omitted. No stated cut-off is given here; in the data, active means normalized growth mostly below about 0.91 (no sharp cut-off); inconclusive means no clear call, values can overlap the other calls; inactive means mostly above about 0.92. The list shows a part of the results.
Mark one answer only. Choices: t for active, f for inactive

Answered examples (2):
compound: O=[N+]([O-])c1cc(O)c(O)c([N+](=O)[O-])c1
cat: f
//
compound: O[N+]1=CC=CCC1=S.On1ccccc1=S.[Zn]
cat: t

Just curious, what result did CN/C(=C\[N+](=O)[O-])NCCSCc1ccc(CN(C)C)o1 get here? f

----------
Experiment: chemical genetic growth profiling, strain panel (AID 1159580)
Conditions: S. cerevisiae deletion strains, growth OD, locus YOR231W, strain MKK1
About 2,000 (36%) of roughly 5,500 compounds were called active. Another 18% or so got no clear call; they are omitted. No stated cut-off is given here; in the data, active means normalized growth mostly below about 0.91 (no sharp cut-off); inconclusive means no clear call, values can overlap the other calls; inactive means mostly above about 0.92. This is one part of the list.
Mark one answer only. Choices: T for active, F for inactive

Answered examples (3):
molecule: c1ccc2c(c1)cc1ccc3cccc4ccc2c1c34
cat: F
--
molecule: C=CC(C1=CC(=O)C(OC)=CC1=O)c1ccccc1 (stereo unspecified)
cat: T
--
molecule: OC(CNCc1ccc(Cl)cc1)CO/N=C\C1=C(Cl)c2cc(Cl)ccc2OC1 (stereo unspecified)
cat: F

Just curious, what result did FC(F)(F)c1cccc(NNC(=S)Nc2ccccc2)c1 get here? F

Same question for FC(F)(F)c1cccc(NC(=S)Nc2ccccc2)c1 please. F

Same question for Cc1ccc(S(=O)(=O)CCSC2=CC(=O)CC(C)(C)S2)cc1 please. F

Same question for O=S(=O)(N/N=C\c1ccc(Cl)cc1)c1ccc(-c2ccccn2)s1 please. F

Same question for Cc1nn(Cc2ccc(C(=O)Sc3ccc(C(F)(F)F)cn3)o2)c(C)c1Br please. F

Same question for Fc1cccc(F)c1NC(=S)Nc1cc(C(F)(F)F)cc(C(F)(F)F)c1 please. F

Same question for C=C[C@@H](C1=CC(=O)C(OC)=C(OC)C1=O)c1ccccc1 please. F

Same question for C=CC(C1=CC(=O)C(OC)=CC1=O)c1ccc(OC)cc1 (stereo unspecified) please. F

----------
Assign normalized growth to each entry below.
Test: chemical genetic growth profiling, strain panel (AID 1159580);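 further: tested at 20 µM; growth read once vehicle control cultures reached saturation at 30 °C; 1 = growth at the plate median or of vehicle wells; lower values mean less growth of the strain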
Conditions: S. cerevisiae deletion strains, growth OD, locus YKL101W, strain HSL1, active compounds read low
The whole screen tested about 5,500 compounds, of which about 2,000 (36%) were called active. Roughly 18% stayed inconclusive and do not appear here. The list shows a part of the results.
One number for each entry.

Recorded normalized growth, per entry:
chemical.string: CSc1cc(-c2ccncc2)nc(-c2cccs2)c1
normalized growth: 0.961
//
chemical.string: O=C(NCCSCc1ccco1)Nc1cc(Cl)cc(Cl)c1
normalized growth: 0.911
//
chemical.string: O=C(NCCSCc1cccc(C(F)(F)F)c1)Nc1cccc(C(F)(F)F)c1
normalized growth: 0.997
//
chemical.string: CC(=O)Nc1ccc(/C=C/[N+](=O)[O-])cc1
normalized growth: 0.795
//
chemical.string: C=CCOc1ccc(/C=C/[N+](=O)[O-])cc1
normalized growth: 0.0997

Go through the items and report each one's normalized growth.
1. CCCc1c(C(=O)NNc2cccc(Cl)c2)cnn1-c1ccccc1
2. FC(F)(F)c1cccc(NC(=S)Nc2csc(C(F)(F)F)c2-c2ccccc2)c1
3. O=C(NCCSCc1cccc(C(F)(F)F)c1)c1ccc(Cl)cc1
4. CCOC(=O)/C(=N/Nc1c(Cl)cccc1Cl)c1csc(N)n1

0.924
0.952
0.917
0.918

----------
Assign normalized growth to each entry below.
Assay: chemical genetic growth profiling, strain panel (AID 1159580);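 further: tested at 20 µM; growth read once vehicle control cultures reached saturation at 30 °C; 1 = growth at the plate median or of vehicle wells; lower values mean less growth of the strain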
Conditions: S. cerevisiae deletion strains, growth OD, locus YHR079C, strain IRE1 (second series), active compounds read low
The whole screen tested about 5,500 compounds, of which about 2,000 (36%) were called active. Not shown: some 18% with an inconclusive outcome. This is one part of the list.
One number for each entry.

Recorded normalized growth, per entry:
compound: CC1(C)C(O)CC(O)C2(C)C1CC(O)C1(C)C2CCC2(C)C(c3ccoc3)CC3OC321 (configuration not stated)
normalized growth: 1.02

compound: O=C1C=CC2=C3c4cc(O)c(O)cc4CC3(O)COC2=C1O (configuration not stated)
normalized growth: 1.03

compound: CC(=O)NCCCCCC(=O)O
normalized growth: 0.992

compound: CSCCC(NC=O)C(=O)NC(C)C(=O)O (configuration not stated)
normalized growth: 0.988

compound: CCCc1occc(=O)c1/C=C/O
normalized growth: 0.959

compound: COc1cc2c(c(OC)c1OC)-c1ccc(OC)c(=O)cc1[C@@H](NC(C)=O)CC2
normalized growth: 1.04

compound: CC(Cc1ccc(O)c(O)c1)C(C)Cc1ccc(O)c(O)c1 (configuration not stated)
normalized growth: 0.904

compound: OC[C@@H]1CCCN2CCCC[C@H]12
normalized growth: 1.01

Go through the items and report each one's normalized growth.
1. C=C(C)[C@H]1CC=C(C(=O)O)CC1
2. NCCNC(=O)c1ccc(Cl)cc1
3. CC(=O)OC1CC(OC(C)=O)C2(C)C(CC(OC(C)=O)C3(C)C2CCC2(C)C(c4ccoc4)CC4OC423)C1(C)C (configuration not stated)
4. CC1(C)C(=O)C=CC2(C)C3CCC4(C)C(c5ccoc5)CC5OC54C3C(O)CC12 (configuration not stated)
5. O=C1C=CC2=C3c4cc(O)c(O)cc4C[C@@]3(O)COC2=C1

[0.941, 0.991, 1.01, 1.02, 1]

Go through the items and report each one's normalized growth.
1. Nc1ccc(S(=O)(=O)Nc2ccc(Cl)nn2)cc1
2. CCOP(=S)(OCC)SCn1c(=O)oc2cc(Cl)ccc21

1: 1.01; 2: 0.996

Go through the items and report each one's normalized growth.
1. c1ccc2c3c([nH]c2c1)CNCC3
2. CC(=O)O[C@@H]1C[C@@]2(C)[C@H](c3ccoc3)C[C@H]3O[C@]32[C@]2(C)C(=O)C(O)=C3C(C)(C)C(=O)C=C[C@]3(C)C12 (some centres not stated)
3. CN/C(=C\[N+](=O)[O-])NCCSCc1ccc(CN(C)C)o1
4. O[N+]1=CC=CCC1=S.On1ccccc1=S.[Zn]

[1.01, 0.952, 0.982, 0.0577]

Go through the items and report each one's normalized growth.
1. Cc1occc(=O)c1O
2. CC(=O)Nc1ccc(S(=O)(=O)Nc2ccc([N+](=O)[O-])cc2)cc1
3. OC[C@@H](O)[C@@H](O[C@@H]1O[C@H](CO)[C@@H](O)[C@H](O)[C@H]1O)[C@H](O)[C@@H](O)CO
4. CC1(C)C(O)CC(O)C2(C)C1CC(=O)C1(C)C2CCC2(C)C(C(=O)O)OC(=O)C3OC321 (configuration not stated)
5. Nc1ccc(C(=O)NCC(=O)O)cc1
6. COc1cc2c(c(OC)c1OC)-c1ccc(O)c(=O)cc1[C@@H](NC(C)=O)CC2
7. CC1(C)C(=O)C=C[C@@]2(C)C1=C(O)C(=O)[C@]1(C)C2CC[C@@]2(C)[C@H](c3ccoc3)C[C@H]3O[C@]321 (some centres not stated)
8. Cc1occc(=O)c1/C=C/O

1.01
0.997
1.01
0.994
1.01
0.851
0.972
1.02

----------
Test: chemical genetic growth profiling, strain panel (AID 1159580);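 further: tested at 20 µM; growth read once vehicle control cultures reached saturation at 30 °C; 1 = growth at the plate median or of vehicle wells; lower values mean less growth of the strain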
Details: S. cerevisiae deletion strains, growth OD, locus YIL066C, strain RNR3
Screen size: about 5,500 compounds; about 2,000 (36%) were called active. Not shown: some 18% with an inconclusive outcome. Cut-off read from the data, not from the text of the source: active = normalized growth mostly below about 0.91 (no sharp cut-off); inconclusive = no clear call, values can overlap the other calls; inactive = mostly above about 0.92. The list shows a part of the results.
Mark one answer only. Choices: true (1) = active, false (0) = inactive

molecule: NCCNC(=O)c1ccc(Cl)cc1
cat: false (0)
//
molecule: C[C@H]1[C@H]2CCC3C4CC=C5C[C@@H](N(C)C)CC[C@]5(C)C4CC[C@@]32CN1C (stereo not given in full)
cat: false (0)
//
molecule: O=C(O)CCCCC1CCSS1 (stereo not given)
cat: false (0)
//
molecule: CC(=O)O[C@@H]1CC2C(C)(C)C=CC(=O)[C@]2(C)C2CC[C@@]3(C)[C@H](c4ccoc4)OC(=O)C4OC43[C@@]21C (stereo not given in full)
cat: false (0)
//
molecule: COc1ccccc1OCCNCC(O)COc1cccc2[nH]c3ccccc3c12 (stereo not given)
cat: false (0)

Just curious, what result did NCCCC[C@H](N[C@@H](CCc1ccccc1)C(=O)O)C(=O)N1CCC[C@H]1C(=O)O get here? false (0)

Same question for C/C=C/c1ccc2c(c1)OCO2 please. false (0)

Same question for CC1(C)C(C(Cl)Cl)C2(Cl)C(Cl)C(Cl)C1(Cl)C2(Cl)Cl (stereo not given) please. false (0)

Same question for CC(=O)O[C@@H]1C[C@@]2(C)[C@H](c3ccoc3)C[C@H]3O[C@]32[C@]2(C)C(=O)C(O)=C3C(C)(C)C(=O)C=C[C@]3(C)C12 (stereo not given in full) please. true (1)

Same question for C=C(CC)C(=O)c1ccc(OCC(=O)O)c(Cl)c1Cl please. false (0)
